- System: HS 578T breast
- assay.name: NCI-60 one-dose screen, 48 h (100 = growth as untreated, 0 = no growth, -100 = all killed)
- test.settings: 10 µM unless noted
This is part of a sample that, as a whole, favours compounds with a hit. Of some 83,000 tested, about 20% had one in any assay.
assay.endpoint: growth (%)
Numbers only; they are read as %.

Give reported growth for CCOC(=O)CC(=O)c1c(C)cc(C)cc1C (HS 578T breast)
91.7

Give reported growth for Cc1ccc(-c2nc(/C=N/Nc3cc(C)nc4ccc(Cl)cc34)c(C)o2)cc1 (HS 578T breast)
-42.8

Give reported growth for O=C(CO[N+](=O)[O-])Nc1ccc(C(=O)/C=C/c2ccc3c(c2)OCO3)cc1 (HS 578T breast)
103

Give reported growth for COc1ccc(-c2nc(Nc3cc(C)[nH]n3)c3ccccc3n2)cc1 (HS 578T breast)
2.72

Give reported growth for CCCCCC(=O)Oc1ccc(/C(=C(\C)c2ccccc2)c2ccc(OCCN(CC)CC)cc2)cc1 (HS 578T breast)
35.6

Give reported growth for Nc1cccc(-c2nc3sccn3c2-c2ccnc(NCCCNS(=O)(=O)c3ccc(C(F)(F)F)cc3)n2)c1 (HS 578T breast)
12.3

Give reported growth for COc1cc(C2CC(=O)Nc3c2cnn3Cc2ccco2)cc2c1OCCO2 (stereo unspecified) (HS 578T breast)
83.6

Give reported growth for O=C1C=CC(=O)c2c1nc1n2CCCC1 (HS 578T breast)
73.1

Give reported growth for CCC(c1ccccc1)C(CC)c1ccc(O)c(O)c1 (stereo unspecified) (HS 578T breast)
87.1

Give reported growth for Cc1cc(Nc2nc(-c3cccnc3)nc3ccccc23)n[nH]1 (HS 578T breast)
5.1

Give reported growth for COc1cccc(NC(=O)c2sc3nc4c(cc3c2N)CN(Cc2ccccc2)CC4)c1 (HS 578T breast)
20.8

====

- System: NCI-H226 lung
- assay.name: NCI-60 one-dose screen, 48 h (100 = growth as untreated, 0 = no growth, -100 = all killed)
- test.settings: 10 µM unless noted
About 83,000 compounds went through this panel and 20% of them were active in at least one assay; those are over-represented in the sample as a whole.
assay.endpoint: growth (%)
Numbers only; they are read as %.

Supply recorded growth for COc1cc(-c2nc3ccccc3s2)ccc1NC(=O)COc1ccc(Cl)cc1 here.
60

Supply recorded growth for CC(=O)Oc1cc2cnc3c4cc(OC(C)=O)c(OC(C)=O)cc4ccc3c2cc1OC(C)=O here.
36.4

Supply recorded growth for C[C@@]1(N2C(=O)OC[C@@H]2c2ccccc2)C(=O)N([C@H](CC(=O)N2CCC(N3CCCCC3)CC2)C(=O)NCc2cccc(C(F)(F)F)c2)[C@@H]1/C=C/c1ccccc1 here.
89.6

Supply recorded growth for C=C1C(=O)O[C@H]2[C@H]1CC/C(Cn1cc(Cn3ccc4ccccc43)nn1)=C\CC[C@@]1(C)O[C@@H]21 here.
76.8

====

- Tested on: A549/ATCC NSCLC
- assay.name: NCI-60 one-dose screen, 48 h (100 = growth as untreated, 0 = no growth, -100 = all killed)
- test.settings: 10 µM unless noted
About 83,000 compounds went through this panel and 20% of them were active in at least one assay; those are over-represented in the sample as a whole. Activity calls are given as the source filed them. The calls were made as follows: active = growth percent below 10; inactive = the rest.
assay.endpoint: growth

Supply recorded growth for O=C(CN1CCN(c2cc3c(cc2F)c(=O)c(C(=O)O)cn3C2CC2)CC1)Nc1nc(-c2ccccc2)cs1 here.
65.2% (inactive)

Supply recorded growth for CCOC(=O)c1c2c(n3ccc(NC(=O)CCN4CCOCC4)cc13)C(=O)c1ncccc1C2=O here.
40.4% (inactive)

Supply recorded growth for CN1CCN(c2ccc3nc(-c4ccc5nc(-c6ccc(OCCC(C)(C)C)cc6)[nH]c5c4)[nH]c3c2)CC1 here.
-45.3% (active)

Supply recorded growth for CCCCOc1ccc(NC(=O)n2nc(NC(C)=O)c3cc(NC(C)=O)ccc32)cc1 here.
102% (inactive)

Supply recorded growth for COc1ccc2nc3cc(Cl)ccc3c(N3CCN(c4ccnc(N5CCN(C)CC5)n4)CC3)c2c1 here.
83.4% (inactive)

Supply recorded growth for CCOC(=S)SCc1ccc(Cl)cc1 here.
80.4% (inactive)

Supply recorded growth for Cc1cc(OCc2ccc(C(F)(F)F)cc2)c2c(c1)C(=O)C=C(NCCN1CCCC1)C2=O here.
54.3% (inactive)

Supply recorded growth for C=C1CC2(OC1=O)C(=O)N(CCCCCCCCCCCCN1C(=O)C3(CC(=C)C(=O)O3)c3ccccc31)c1ccccc12 (centres undefined) here.
97.6% (inactive)

Supply recorded growth for O=S(=O)(Nc1ccc(Cl)cc1Cl)c1ccc(-c2cnc(C3CC3)o2)cc1 here.
26.5% (inactive)

====

- System: OVCAR-8 ovarian
- assay.name: NCI-60 one-dose screen, 48 h (100 = growth as untreated, 0 = no growth, -100 = all killed)
- test.settings: 10 µM unless noted
About 83,000 compounds went through this panel and 20% of them were active in at least one assay; those are over-represented in the sample as a whole. Active and inactive are the calls of the source. The calls were made as follows: active = growth percent below 10; inactive = the rest.
assay.endpoint: growth

Supply recorded growth for CC(=O)Oc1ccc(Nc2c3ccccc3nc3ccccc23)cc1 here.
-58.9% (active)

Supply recorded growth for O=[N+]([O-])c1cccc(-c2nc3sccn3c2-c2ccnc(NCCCNS(=O)(=O)c3ccc(Br)cc3)n2)c1 here.
28.2% (inactive)

Supply recorded growth for COc1cc(OC)c(/C=C/S(=O)(=O)Cc2ccc(OC)c(N)n2)c(OC)c1 here.
11% (inactive)

Supply recorded growth for Cn1c2ccccc2c2c3c(c4c5ccccc5n(CCCCCC#N)c4c21)C(=O)N(O)C3=O here.
27.5% (inactive)

Supply recorded growth for CCOC(=O)/C=C/C(=O)[C@H](CC(C)C)NC(=O)[C@H](Cc1ccccc1)NC(=O)OCc1ccccc1 here.
72.8% (inactive)

Supply recorded growth for CCN(CC)CC(O)CNc1c2ccc([N+](=O)[O-])cc2nc2cc(OC)c(OC)cc12 (centres undefined) here.
-2.1% (active)

Supply recorded growth for CC(=O)Oc1cc2cnc3c4cc(OC(C)=O)c(OC(C)=O)cc4ccc3c2cc1OC(C)=O here.
-22.1% (active)

Supply recorded growth for CNCCCn1c2c(c3ccc([N+](=O)[O-])cc3c1=O)C(=O)c1cc(OC)cnc1-2 here.
-14.9% (active)

Supply recorded growth for Cc1ccc(SCN2CCN(c3cccc(Cl)c3)CC2)cc1 here.
110% (inactive)

====

- System: MALME-3M melanoma
- assay.name: NCI-60 one-dose screen, 48 h (100 = growth as untreated, 0 = no growth, -100 = all killed)
- test.settings: 10 µM unless noted
This is part of a sample that, as a whole, favours compounds with a hit. Of some 83,000 tested, about 20% had one in any assay.
Binary label based on growth with cut-off 70%: below gives yes, not below gives no.

Is 70% strictly greater than the compound's reported growth? compound: CCOC(=O)c1cnc2ccc(Br)cc2c1Nc1cccc(S(=O)(=O)NC)c1
no

Is 70% strictly greater than the compound's reported growth? compound: CNC(=O)c1cc(Oc2ccc3nc(NC(=O)Nc4ccc(N5CCC(N(C)C)CC5)cc4)sc3c2)ccn1
yes

Is 70% strictly greater than the compound's reported growth? compound: CCN(CC)CCCNc1cccc2c(SCc3ccccc3)ccnc12
yes

Is 70% strictly greater than the compound's reported growth? compound: O=C(CCN1CCOCC1)Nc1ccc(Cn2nnc3c2C(=O)c2nnn(Cc4ccc(NC(=O)CCN5CCOCC5)cc4)c2C3=O)cc1
yes

Is 70% strictly greater than the compound's reported growth? compound: O=C(Nc1cccc2c1C(=O)c1cccc(Nc3cccc4c3C(=O)c3cccc(NC(=O)c5ccccc5)c3C4=O)c1C2=O)c1ccccc1
no

Is 70% strictly greater than the compound's reported growth? compound: Clc1ccc(-c2nnc(COc3ccccc3Cl)o2)cc1
no

Is 70% strictly greater than the compound's reported growth? compound: O=C(O)c1ccc2c(c1Sc1ccccc1)C(=O)c1ccccc1C2=O
no

Is 70% strictly greater than the compound's reported growth? compound: CCC(c1ccccc1)C(CC)c1ccc(O)c(O)c1 (centres undefined)
no

Is 70% strictly greater than the compound's reported growth? compound: CC1=C(C)C(=O)OC([C@](C)(O)[C@]2(O)CC[C@@]3(O)[C@@H]4C[C@H]5O[C@]56CC=CC(=O)[C@]6(C)[C@H]4CC[C@]23COC(=O)c2ccc(C)o2)C1 (some centres undefined)
yes

====

- Test system: A498 renal
- assay.name: NCI-60 one-dose screen, 48 h
- test.settings: 10 µM unless noted
The panel holds about 83,000 compounds, 20% with a hit somewhere; the sample as a whole holds those more often. Active and inactive are the calls of the source. The calls were made as follows: active = growth percent below 10; inactive = the rest.
Give your call using only these classes: active, inactive

For O=C(CN1CCN(c2cc3c(cc2F)c(=O)c(C(=O)O)cn3C2CC2)CC1)Nc1cc(=O)[nH]c(=O)[nH]1 , which call appears in the assay record?
inactive

For C/C(=C(/c1ccc(O)cc1)c1ccc(OCCN2CCCC2)cc1)c1ccccc1 , which call appears in the assay record?
inactive

For Cc1ccc(/C=C2\Oc3cc(OCC(=O)c4ccc(Cl)cc4)ccc3C2=O)cc1 , which call appears in the assay record?
inactive

For CSc1nc(NCCCNc2ccnc3cc(Cl)ccc23)cc(-c2ccccc2)n1 , which call appears in the assay record?
inactive

For CCOC(=O)c1ccc2c(c1)nc(/C=C/c1ccc(Cl)cc1)n2-c1cc(C(C)(C)C)[nH]n1 , which call appears in the assay record?
inactive

For CCOC(=O)Cc1cnn(C)c1NC(=O)c1ccc(Cl)cc1NC(C)=O , which call appears in the assay record?
inactive

For CSc1ncnc2c1ncn2C1CCCO1 (stereo unspecified) , which call appears in the assay record?
inactive

For CCCCCCCCCCCCCCCCCCSC1=CC(=O)C(OC)=C(OC)C1=O , which call appears in the assay record?
inactive

For CNCCCn1c2c(c3ccc([N+](=O)[O-])cc3c1=O)C(=O)c1cc(OC)cnc1-2 , which call appears in the assay record?
active

For COc1nc2c(cc1S(=O)(=O)c1ccccc1)CCc1c-2cnn1-c1ccc(Cl)cc1 , which call appears in the assay record?
inactive

For CC(=O)OCC(=O)C1CCC=CC1OC(C)=O (stereo unspecified) , which call appears in the assay record?
inactive

For O=C1OC2C(I)C3CC2C1C3c1ccccc1 (stereo unspecified) , which call appears in the assay record?
inactive

For Cn1c2ccccc2c2c3c(c4c5ccccc5[nH]c4c21)C(=O)N(N)C3=O , which call appears in the assay record?
inactive

For CN(C)CC(=O)Nc1ccc(Cn2nnc3c2C(=O)c2nnn(Cc4ccc(NC(=O)CN(C)C)cc4)c2C3=O)cc1 , which call appears in the assay record?
active

For COc1ccc(-c2csc(NC(=O)CN3CCN(c4cc5c(cc4F)c(=O)c(C(=O)O)cn5C4CC4)CC3)n2)cc1 , which call appears in the assay record?
active

For CCOC(=O)N1CCN(c2nc(Nc3cc(C)[nH]n3)c3ccccc3n2)CC1 , which call appears in the assay record?
active

For O=C1O[C@H]([C@H](O)CO)C(O)=C1O , which call appears in the assay record?
inactive

For CC(C)(C)n1cc(-c2ccnc(NCCNS(=O)(=O)c3ccccc3)c2)c(-c2cccc(O)c2)n1 , which call appears in the assay record?
inactive

For O=C1CC(c2nc3ccccc3s2)CN1C1CCCCC1 (stereo unspecified) , which call appears in the assay record?
inactive

For COc1ccc(C(=O)/C=C/c2cc3ccccc3[nH]c2=O)cc1 , which call appears in the assay record?
inactive

For CCOC(=O)c1cnc2ccc(Br)cc2c1Nc1cccc(S(=O)(=O)NC)c1 , which call appears in the assay record?
inactive

For COc1ccc(/C=C2\N=C3Sc4cc(Cl)ccc4C(=O)N3C2=O)cc1 , which call appears in the assay record?
inactive

For C[C@H](CCC(=O)O)[C@H]1CC[C@H]2[C@@H]3CC[C@@H]4/C(=C\c5ccco5)C(=O)/C(=C\c5ccco5)C[C@]4(C)[C@H]3CC[C@]12C , which call appears in the assay record?
inactive

For CC(=O)Oc1ccc(Nc2c3ccccc3nc3ccccc23)cc1 , which call appears in the assay record?
active

For NC(=S)N/N=C/c1cc(-c2cccc(N)c2)ccn1 , which call appears in the assay record?
inactive

For COc1ccc(S(=O)(=O)NCCNc2nccc(-c3c(-c4cccc([N+](=O)[O-])c4)nc4sccn34)n2)cc1 , which call appears in the assay record?
inactive

For C=CC[N+]1(CCO)CCN=C1CCCCCCCCCCCCC (stereo unspecified) , which call appears in the assay record?
inactive

For COc1ccc(-c2cc(C(=O)N=Nc3c(O)[nH]c4ccccc34)no2)cc1 , which call appears in the assay record?
inactive

For O=c1ccc2cc3ccccc3cc2[nH]1 , which call appears in the assay record?
inactive

For CN1CCCCC1CCN1c2ccccc2Sc2ccc(Cl)cc21 (stereo unspecified) , which call appears in the assay record?
inactive

For CC1=CC(=O)CC(C)(C)[C@@]1(O)/C=C/[C@@H](C)O , which call appears in the assay record?
inactive

For C/C(Cc1ccc(Cl)cc1)=C(\c1ccc(OCCN2CCCCCC2)cc1)c1ccc(OC(=O)C2CCCCC2)cc1 , which call appears in the assay record?
inactive

For C=C1C(=O)O[C@H]2[C@H]1CC/C(Cn1cc(Cn3ccc4cc(Cl)ccc43)nn1)=C\CC[C@@]1(C)O[C@@H]21 , which call appears in the assay record?
inactive

For O=[N+]([O-])c1cccc(C2CC(c3ccccc3)=Nc3ccccc3S2)c1 (stereo unspecified) , which call appears in the assay record?
inactive

For C#Cc1nc2ccccc2c(=O)[nH]1 , which call appears in the assay record?
active

For COc1ccc(-c2cc(-c3ccc(N(C)C)cc3)nc(NC(=O)c3ccncc3)n2)cc1 , which call appears in the assay record?
inactive

For CC[n+]1ccc2c(c1)C(=O)c1nccc3c1c-2nc1ccccc13 , which call appears in the assay record?
active

For CCN(CC)CC(C)Nc1ccc([N+](=O)[O-])c2sc3ccccc3c(=O)c12 (stereo unspecified) , which call appears in the assay record?
inactive

For COc1ccc(-c2cc(/C=C3\C(=O)Nc4ccc(Cl)cc43)[nH]n2)cc1 , which call appears in the assay record?
inactive

For O=c1c2cccc3c(NC4CCCCC4)ccc(c32)c2nc3ccccc3n12 , which call appears in the assay record?
inactive

For Fc1ccc(Cc2ccc(F)cc2)cc1 , which call appears in the assay record?
inactive

Values were extracted from PubChem BioAssay (NCI).
